- System: SNB-75
- Experiment notes: NCI tumour cell line growth inhibition, 48 h
Active and inactive are the calls of the source. Cut-off read from the data, not from the text of the source: active = GI50 up to about 1.1 µM and inactive = higher.
Result type: GI50

Ask: Answer with the recorded GI50 for the compound listed here: COc1cccc(-c2c(-c3ccccc3)[nH]c(C)c2C(=O)ONC(=O)c2ccccc2)c1
Result: 5.86 µM (inactive)

Ask: Supply GI50 value. Item: C(=C\c1ccccc1)/Cn1nc(-c2ccccc2)nc1-c1cnccn1
Result: 18.7 µM (inactive)

Ask: Note GI50 for the compound shown: CC(=O)[C@@]1(O)CC[C@H]2[C@@H]3C[C@H](C)C4=CC(=O)CC[C@]4(C)[C@H]3[C@@H](O)C[C@@]21C
Result: > 100 µM (inactive)

Ask: Write down GI50 measured for item COC1C(O)CC(OC2CC(OC3CC(O[C@@H]4C(=O)c5c(cc6cc(OC7CC(OC8CC(O)C(O)C(C)O8)C(O)C(C)O7)c(C)c(O)c6c5O)C[C@H]4[C@H](OC)C(=O)[C@@H](O)[C@@H](C)O)OC(C)C3O)OC(C)C2O)OC1C (stereo not given in full)
Result: < 0.0331 µM (active)

Ask: Provide measured GI50 value, entry: Cc1ccc(NCCO)cc1
Result: > 100 µM (inactive)

Ref: ChEMBL document CHEMBL1201862
